Please consider the recorded pIC50 for UniProtKB P27338 in what follows.
Sequence (P27338 whole entry): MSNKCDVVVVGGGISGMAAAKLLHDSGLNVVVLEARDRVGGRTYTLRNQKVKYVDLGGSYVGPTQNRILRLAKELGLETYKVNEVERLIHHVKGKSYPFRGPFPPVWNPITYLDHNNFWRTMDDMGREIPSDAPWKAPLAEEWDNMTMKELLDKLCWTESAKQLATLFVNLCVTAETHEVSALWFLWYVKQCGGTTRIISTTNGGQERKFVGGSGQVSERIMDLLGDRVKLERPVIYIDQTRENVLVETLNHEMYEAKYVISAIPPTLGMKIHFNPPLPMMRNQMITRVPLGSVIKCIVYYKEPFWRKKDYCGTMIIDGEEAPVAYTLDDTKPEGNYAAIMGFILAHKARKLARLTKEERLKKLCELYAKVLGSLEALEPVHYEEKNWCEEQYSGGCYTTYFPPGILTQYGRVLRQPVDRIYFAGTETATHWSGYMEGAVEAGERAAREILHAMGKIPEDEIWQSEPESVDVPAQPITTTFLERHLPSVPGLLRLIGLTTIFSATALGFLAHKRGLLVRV
Note on pIC50: it is the negative log10 of concentration, concentration in mol/L.

I am curious: what pIC50 value has been reported for "Cc1ccc(NC(=O)c2coc3cccc(O)c3c2=O)cc1" ?
7.80

I am curious: what pIC50 value has been reported for "O=C(Nc1ccc(Cl)cc1)c1coc2cccc(O)c2c1=O" ?
8.08

I am curious: what pIC50 value has been reported for "Cc1ccc(NC(=O)c2coc3ccc(O)cc3c2=O)cc1" ?
6.46

I am curious: what pIC50 value has been reported for "O=C(Nc1cccc(Cl)c1)c1coc2ccc(O)cc2c1=O" ?
7.53

I am curious: what pIC50 value has been reported for "O=C(Nc1ccc(O)cc1)c1coc2cccc(O)c2c1=O" ?
6.22

I am curious: what pIC50 value has been reported for "Cc1ccc(NC(=O)c2coc3ccc(O)cc3c2=O)cc1C" ?
6.58

I am curious: what pIC50 value has been reported for "COc1ccc2occ(C(=O)Nc3cccc(Cl)c3)c(=O)c2c1" ?
8.17

I am curious: what pIC50 value has been reported for "Cc1ccc(NC(=O)c2coc3cccc(O)c3c2=O)cc1C" ?
7.81

I am curious: what pIC50 value has been reported for "O=C(Nc1ccccc1)c1coc2ccc(O)cc2c1=O" ?
6.62

I am curious: what pIC50 value has been reported for "O=C(Nc1cccc(Cl)c1)c1cc(=O)c2cc(O)ccc2o1" ?
7.16

I am curious: what pIC50 value has been reported for "O=C(Nc1ccc(O)cc1)c1coc2ccc(O)cc2c1=O" ?
5.32

I am curious: what pIC50 value has been reported for "O=C(Nc1ccccc1)c1coc2cccc(O)c2c1=O" ?
7.89
